apparent KD of MS2 coat protein by entry:
- System: MS2 coat protein
- test: apparent KD of MS2 coat protein; higher = weaker reporter binding
- condition_parameters: Eterna round: R107; input ligand: theophylline 20 uM
assay_readout: apparent KD of MS2 coat protein (µM)

# seq_text, result_number
rows = [
    ("AUCUCAUAGAGUGAUACCAGACUACAUGAGGAUCACCCAUGUUAGAUUUAAAUAUCAUUUGUCCCUUGGCAGCACAUUAAGUACA [JR_Nu_SSTheophyB_Sub021]", 0.0148),
    ("AAUCGGAGAUGAAGGAGCGCGUACAUGAGGAUCACCCAUGUAUCAAAGCUUCUCCCGUGUAUGCAGGUAGGUCGCAUUUCCACGU [Ceriedan]", 0.013),
    ("GUCGCUGAGGGAAGGAGCGUGAAGACAUGAGGAUCACCCAUGUAGAGGCGCCGAAGGCGUUCGCAGGUAGGUCGCCCUCAGUGAA [#1 Same State - Arginine B Attempt #25 (HarryS)]", 0.0221),
    ("UAUCGUCAGACGGCCGCCACUAGAACAUGAGGAUCACCCAUGUACGGCCGCCCGGUGUGAUCCACUAGGACCGGGUCUGACGAAU [(Trp1)-(Ms2)-(T)'-(M)'-(Trp2)_Design23]", 0.0779),
    ("UACAUAUGCCGAAGGAGCGCGAGAAGCAAAGCUUCAUUCCUCACAUGAGGAUCACCCAUGUCGCAGGUAGGUCGCGGCAUAUGUU [#15 Exclusion - Arginine B]", 0.042),
    ("UGAUCCUGCAGGGAUACCAGCGCCGCUUGAUAACUGUGCACAUGAGGAUCACCCAUGUAGCGCCCUUGGCAGCCCAGCUAGAGGG [Same State Theophylline B GF23]", 0.0337),
    ("UUAUUUAUAAUUGAUACCAGUUUAAUGGCCGCAAAUCCUGACAUGAGGAUCACCCAUGUAAGCCCUUGGCAGCGGUUAUGGGUUU [XTheo B #25]", 0.0264),
    ("CUCAUCCACGCGGCCGCCACUAUAUUGUGGUGCGAAUGUGUCGUAAUACAUGAGGAUCACCCAUGUAGGACCGGGCGUGGAUGAG [#09 Exclusion Tryptophan B]", 0.0144),
    ("AAUUAUUUCUCAAUUAUUUAAUCUUCAGAAGGAGCGUGAUGAUUCACAGGUAGGUCGCUGAUGACAUGAGGAUCACCCAUGUAUU [JR_SSArginiA_Sub003]", 0.0311),
    ("AUCGUACCUGAUGAUACCAGCAUGUGAUCGUAACAUGAGGAUCACCCAUGUAAUCAGUGAUGCCCUUGGCAGCAUGAUCGGUACA [Same State - Theophylline B (Freestyle 14)]", 0.127),
    ("ACAUGAGGAUCACCCAUGUAUGAUGUUCCUCGAGGACCGGUACGGCCGCCACUCGAACGAGUGGCGCGCGAGCGCGCGCUCGCGC [aVa]", 0.0272),
]
